experiment: Noncompetitive inhibition of Saccharomyces cerevisiae alpha-glucosidase using p-nitrophenyl-alpha-D-glucopyranoside as substrate by Lineweaver-Burk plot and Dixon plot analysis
property: Ki (µM)
Quick reminder: number only, in µM, skip the unit.

[Q] What value of Ki has been recorded for this entry: CC1(C)C=Cc2c(ccc(C(=O)CO)c2O)O1
[A] 130

----------
assay: Inhibition of Saccharomyces cerevisiae alpha-glucosidase using p-nitrophenyl-alpha-D-glucopyranoside as substrate preincubated for 5 mins prior to substrate addition measured after 35 mins by spectrophotocolorimetric assay
property: IC50

These solved cases illustrate the format of a correct answer.
{"molecule": "COc1cc(-c2oc3cc(O)cc(O)c3c(=O)c2O)ccc1O", "IC50": "160 µM"}
{"molecule": "C=C1C(=O)O[C@@H]2C[C@@H](C)/C=C\\C(=O)[C@](C)(O)[C@H](OC(C)=O)[C@@H](OC(=O)/C(C)=C/C)[C@@H]12", "IC50": "280 µM"}
{"molecule": "CC1(C)C=Cc2c(ccc(C(=O)CO)c2O)O1", "IC50": "420 µM"}

Now look at this entry.
[Q] Would you mind telling me what IC50 value was observed for C[C@H]1O[C@H](O[C@H]2[C@H](O)[C@@H](O)[C@@H](O[C@H]3[C@H](O)[C@@H](O)C(O)O[C@@H]3CO)O[C@@H]2CO)[C@H](O)[C@@H](O)[C@@H]1N[C@H]1C=C(CO)[C@@H](O)[C@H](O)[C@H]1O (some centres undefined) ?
[A] 340 µM
